# MEASUREMENT TARGET: Acetylcholinesterase (Rattus norvegicus, UniProt P37136)
# Construct: corpora striata dissected free, weighted and homogenized in 19 volumes; from tissue; host or cells: male Wistar rat corpora striata, homogenate
# Sequence (P37136 32-614): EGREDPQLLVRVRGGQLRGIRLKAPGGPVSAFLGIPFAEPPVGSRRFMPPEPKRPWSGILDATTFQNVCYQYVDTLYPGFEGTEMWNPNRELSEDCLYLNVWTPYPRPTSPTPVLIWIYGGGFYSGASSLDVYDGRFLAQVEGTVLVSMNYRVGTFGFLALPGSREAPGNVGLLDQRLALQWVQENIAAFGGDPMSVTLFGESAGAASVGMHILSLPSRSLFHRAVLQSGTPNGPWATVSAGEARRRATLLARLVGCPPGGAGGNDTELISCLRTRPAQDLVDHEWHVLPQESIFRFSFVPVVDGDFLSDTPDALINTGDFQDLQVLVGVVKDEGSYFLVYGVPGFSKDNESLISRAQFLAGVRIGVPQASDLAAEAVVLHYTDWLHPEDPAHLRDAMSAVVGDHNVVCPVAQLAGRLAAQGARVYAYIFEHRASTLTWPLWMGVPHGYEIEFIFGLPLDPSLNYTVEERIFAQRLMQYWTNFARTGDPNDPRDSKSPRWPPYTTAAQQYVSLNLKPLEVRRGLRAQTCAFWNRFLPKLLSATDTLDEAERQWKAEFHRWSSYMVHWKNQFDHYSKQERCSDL
# ASSAY EXPLANATION: in vitro inhibition of acetylcholinesterase assay
# Type: biochemical, rat (male Wistar, corpora striata)
# RECORDED CONDITIONS: rat corpora striata homogenate, pH 7.2; acetylthiocholine 5 mM final; 10 min preincubation at 37° C.; log-probit; read-out: Inhibition of Acetylcholinesterase Activity IC50
Where a name gives a salt, the structure may show the parent alone.
READOUT KIND: IC50
Could you kindly put the unit after your number?

Per the records, this molecule ( Fc1ccc(Cn2ccc(=Nc3noc4ccccc34)cc2)cc1 [hydrobromide] ) has IC50 equal to 440 nM
